The following binders are shown together with reported koff values.
assay_system: T1, Cynomolgus monkey NKp46 for immunization, screening, and testing (Kactus, NKP-CM146) (cynomolgus monkey, UniProt Q95JB9 22-254)
T1 construct: Bought protein; also called monkey NKp46 antigen protein; cynomolgus monkey NKp46 antigen
T1 sequence (Q95JB9 other isoform, or with tags, fused parts or gaps limits assumed): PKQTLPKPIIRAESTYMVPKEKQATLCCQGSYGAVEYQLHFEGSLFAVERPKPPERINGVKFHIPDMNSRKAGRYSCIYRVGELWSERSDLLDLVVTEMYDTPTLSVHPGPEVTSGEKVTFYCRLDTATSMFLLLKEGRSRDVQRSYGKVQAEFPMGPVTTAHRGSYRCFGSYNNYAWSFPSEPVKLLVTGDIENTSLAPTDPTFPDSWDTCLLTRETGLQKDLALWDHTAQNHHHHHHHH
assay_protocol: SPR (Biacore 8K), antibody captured on anti-human Fc, NKp46 as analyte, 1:1 fit
Description: Cynomolgus monkey NKp46 was diluted in two-fold to a serial concentration (400 nM-3.125 nM), combined for 90 s at a flow rate of 50 μL/min and dissociated for 500 s. At the end of each round of experiments, 3 M MgCl₂ solution was used to rinse at a flow rate of 30 μL/min for 30 s, and the captured antibody was removed along with the antigen to complete the regeneration of the chip. […]
Numeric answer only, unit s⁻¹ assumed.

- H2-PA45 humanized antibody (antibody, V domains shown, not shown: constant region of human IgG1) VH: EVQLVESGGGLVQPGGSLRLSCAASGRTFSRLPMAWFRQAPGKGLEFVAAISWSGGSTYYADSMKGRFTISRDNSKNTAYLQMNSLRAEDTAVYYCAAVGDSAPYSATIVYTDARAYAYWGQGTLVTVSS: 0.000563
- H2-PA31 humanized antibody (antibody, human IgG1, V domains shown, not shown: constant region of human IgG1) VH: EVQLVESGGGLVQPGGSLRLSCAVSGRTFSRLPMGWFRQAPGKGLEFVAAISWSSSTTYYADSVKGRFTISRDNSKNTAYLQMNSLRAEDTAVYYCAAVGGSLDYSATVVYTAARAYADWGQGTLVTVSS: 0.000596
- H1-PC11 humanized antibody (antibody, human IgG1, V domains shown, not shown: constant region of human IgG1) VH: EVQLVESGGGLVQPGGSLRLSCAASPYSANSFSMAWFRQAPGKGLEGVACIQAESGSTNVAPSVKGRFTISQDNSKNTLYLQMNSLRAEDTAVYYCAAFKRNVGGCELRPEHWRFWGQGTLVTVSS: 0.00589

Give koff for the following binder: H2-PA27 humanized antibody (antibody, human IgG1, V domains shown, not shown: constant region of human IgG1) VH: QVQLVESGGGVVQPGRSLRLSCAASGRTESWYRMGWFRQAPGKGLEVVARISGDTNIKYYAGSVKGRFTISRDNSKNTLYLQMSSLRAEDTAVYYCAADRTGATWDYWGQGTLVTVSS
0.0059
